testSystem: Prolyl endopeptidase FAP (Homo sapiens, UniProt Q12884)
Sequence (Q12884 whole entry): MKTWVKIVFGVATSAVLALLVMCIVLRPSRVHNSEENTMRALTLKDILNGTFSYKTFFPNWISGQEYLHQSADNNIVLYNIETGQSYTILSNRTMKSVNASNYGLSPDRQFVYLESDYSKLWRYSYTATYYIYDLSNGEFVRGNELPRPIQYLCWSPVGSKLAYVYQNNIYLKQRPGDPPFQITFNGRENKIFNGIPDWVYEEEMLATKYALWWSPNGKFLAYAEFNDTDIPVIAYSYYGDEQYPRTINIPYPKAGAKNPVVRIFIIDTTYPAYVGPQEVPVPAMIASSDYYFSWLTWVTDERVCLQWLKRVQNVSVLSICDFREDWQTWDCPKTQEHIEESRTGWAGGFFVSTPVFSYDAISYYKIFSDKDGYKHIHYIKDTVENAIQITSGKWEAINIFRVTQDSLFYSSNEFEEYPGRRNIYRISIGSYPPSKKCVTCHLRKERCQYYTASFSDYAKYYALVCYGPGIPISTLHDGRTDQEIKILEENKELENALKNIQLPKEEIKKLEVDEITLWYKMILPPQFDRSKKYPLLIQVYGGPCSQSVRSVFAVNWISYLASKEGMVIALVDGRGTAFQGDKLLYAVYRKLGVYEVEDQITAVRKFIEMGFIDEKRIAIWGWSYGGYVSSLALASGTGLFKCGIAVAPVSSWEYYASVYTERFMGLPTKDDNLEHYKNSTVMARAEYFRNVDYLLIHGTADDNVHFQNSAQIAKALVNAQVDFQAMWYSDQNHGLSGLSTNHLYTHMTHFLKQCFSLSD
experimentDescription: hFAP Binding Assay
assayReadout: koff
# number then unit; no other words

Below are worked cases with known answers.
N#C[C@@H]1CSCN1C(=O)CNC(=O)c1ccnc2ccc(N3CC(F)C3)cc12 | 0.0002 s⁻¹
CC1(CC(F)F)CN(c2ccc3nccc(C(=O)NCC(=O)N4CSC[C@H]4C#N)c3c2)C1 | 7.3e-05 s⁻¹
CC1(C2CC2)CN(c2ccc3nccc(C(=O)NCC(=O)N4CSC[C@H]4C#N)c3c2)C1 | 8e-05 s⁻¹

Continue with the compound presented below.
q: Note down koff recorded for `Cc1ccn(-c2ccc3nccc(C(=O)NCC(=O)N4CSC[C@H]4C#N)c3c2)c1`
a: 1.6e-05 s⁻¹
